- Test system: Staphylococcus aureus
- assay.info: Antibacterial activity against Staphylococcus aureus MTCC 2901 after 24 hrs
measured.attribute: -log(1/MIC)

Cc1cccc(C(=O)Nc2ccc(O)cc2)c1 | 1.26
O=C(Nc1ccc(O)cc1)c1ccccc1Cl | 1.3
O=C(Nc1ccccc1O)c1ccc2ccccc2c1O | 1.25
COc1cccc(C(=O)Nc2ccc(O)cc2)c1[N+](=O)[O-] | 1.36
O=C(Nc1ccccc1O)c1ccccc1Cl | 1.3
O=C(Nc1ccccc1O)c1c(O)ccc2ccccc12 | 1.23
O=C(Nc1ccc(O)cc1)c1ccccc1 | 1.23
O=C(Nc1ccc(O)cc1)c1ccc2ccccc2c1O | 1.32
COC(=O)c1cccc(O)c1NC(=O)c1ccccc1OCc1ccccc1 | 1.48
O=C(Nc1ccccc1)c1ccc2ccccc2c1O | 1.26
